# System: HCT-116 colon
# RUN_DESCRIPTION: NCI tumour cell line growth inhibition, 48 h
MEASUREMENT_NAME: TGI

**Query** Give its TGI value. Item: C/C(=N/N(C=O)C[n+]1ccccc1)C(CN(CC(C)C)CC(C)C)C(=O)Nc1ccc(C)cc1C (stereo not given)
**Result** > 100 µM

**Query** Give its TGI value. Item: COc1ccc(OC)c(NC(=O)C(=O)C(C(=O)c2ccccc2F)C2OC(=O)c3ccccc32)c1 (stereo not given)
**Result** > 100 µM

**Query** Give its TGI value. Item: COc1ccc(C2=C(Cl)C(=O)O/C2=C\c2ccc(OC)c(Br)c2)cc1Cl
**Result** 53.1 µM

**Query** Give its TGI value. Item: Cc1cc(C)c2c(c1)CN1CN2Cc2cc(C)cc(C)c21
**Result** 37.2 µM

**Query** Give its TGI value. Item: CC1(C)OC[C@@H](C[C@H](O)COCc2ccccc2)O1
**Result** > 100 µM

**Query** Give its TGI value. Item: CSc1nc2c(c(O)c(C)c(=O)n2C2OC(COC(C)=O)C(OC(C)=O)C(OC(C)=O)C2OC(C)=O)c(=O)n1C (stereo not given)
**Result** > 100 µM

**Query** Give its TGI value. Item: O=C(CCc1nc(=S)[nH][nH]1)NC12CC3CC(CC(C3)C1)C2
**Result** > 100 µM

**Query** Give its TGI value. Item: CCOC(=O)/C=C(/C=C\COC1CCCCO1)c1ccccc1 (stereo not given)
**Result** 29.5 µM

**Query** Give its TGI value. Item: COc1cc2cc(Oc3ccc(NC(=O)c4cccc(C(F)(F)F)c4)cc3)c(C)nc2cc1OC
**Result** > 100 µM

**Query** Give its TGI value. Item: Cc1ccc(S(=O)(=O)c2c(O)c3ccc(O)c(C)c3oc2=O)cc1
**Result** > 100 µM

----------
# Test system: NCI-H460 lung
# RUN_DESCRIPTION: NCI tumour cell line growth inhibition, 48 h
MEASUREMENT_NAME: TGI

**Query** Give its TGI value. Item: Oc1c(OCc2nnc(CCCCCCCCc3nnc(COc4ccc5ccccc5c4O)o3)o2)ccc2ccccc12
**Result** > 100 µM

**Query** Give its TGI value. Item: COc1ccc(OC/C(N=Cc2ccncc2)=N/NC(=O)c2ccncc2)cc1
**Result** > 100 µM

**Query** Give its TGI value. Item: N=C(N)SCc1cn2ccccc2n1
**Result** > 100 µM

**Query** Give its TGI value. Item: COc1cc2c3c(cc(Cl)nc3c1OC)C(=O)C(=O)N2
**Result** 42.7 µM

----------
# System: M19-MEL melanoma
# RUN_DESCRIPTION: NCI tumour cell line growth inhibition, 48 h
MEASUREMENT_NAME: TGI (µM)
Your answer is read as µM, so omit the unit and give the number.

**Query** Requested read-out TGI, target or system M19-MEL melanoma, entry Cc1cc(C)c2c(c1)CN1CN2Cc2cc(C)cc(C)c21
**Result** 53.4

**Query** Requested read-out TGI, target or system M19-MEL melanoma, entry Cc1cc([N+](=O)[O-])c(C)c2c1[nH]c1ccc(/C(CCC3CCCC3)=N\N)cc12
**Result** 37.2

**Query** Requested read-out TGI, target or system M19-MEL melanoma, entry CC(C)c1cccc(C(C)C)c1NC(=O)C(=O)C(C(=O)c1ccccc1-c1ccccc1)C1OC(=O)c2ccccc21 (stereo unspecified)
**Result** 63.6

----------
Assign TGI to each entry below.
# Tested on: RXF 393 renal
# RUN_DESCRIPTION: NCI tumour cell line growth inhibition, 48 h
Peptide text beside a SMILES is read from it. * marks the point of attachment. X26 = Clc1c(Cl)c(Cl)c(O*)c(Cl)c1Cl; Boc = CC(C)(C)OC(=O)*; OBn = c1ccc(CO*)cc1; Bn = c1ccc(C*)cc1

**Query** Requested read-out TGI, target or system RXF 393 renal, entry CC1(C)CCC(C)(C)c2cc(C(=O)Nc3ccc(C(=O)O)cc3)ccc21
**Result** > 42 µM

**Query** Requested read-out TGI, target or system RXF 393 renal, entry Cn1nc2c(c1N)Cc1c(nn(C)c1N)-c1ccccc1-2
**Result** > 100 µM

**Query** Requested read-out TGI, target or system RXF 393 renal, entry CC(=O)OCC(=O)O[C@@H]1[C@H]2[C@@H](OC(=O)c3ccccc3)[C@@H](C)C[C@]2(O)[C@H](OC(C)=O)[C@@]2(C)C[C@]1(OC(C)=O)C[C@H]1C(=O)C(C)(C)[C@@H](OC(C)=O)[C@@H]12
**Result** > 25 µM

**Query** Requested read-out TGI, target or system RXF 393 renal, entry COc1cc2c3c(cc(Cl)nc3c1OC)C(=O)C(=O)N2
**Result** 27.5 µM

**Query** Requested read-out TGI, target or system RXF 393 renal, entry CC(C)CC(NC(=O)C(CCC(=O)OCc1ccccc1)NC(=O)OC(C)(C)C)C(=O)NC(COCc1ccccc1)C(=O)NC(Cc1ccccc1)C(=O)Oc1c(Cl)c(Cl)c(Cl)c(Cl)c1Cl (stereo not drawn) (Boc-E(OBn)LS(Bn)F-X26; configuration not given here)
**Result** 63.8 µM

**Query** Requested read-out TGI, target or system RXF 393 renal, entry Cc1c(C)c2cc3c(=O)ccoc3c(C)c2oc1=O
**Result** > 100 µM

**Query** Requested read-out TGI, target or system RXF 393 renal, entry Clc1ccc([O][In]([O]c2ccc(Cl)cn2)[O]c2ccc(Cl)cn2)nc1
**Result** > 100 µM

**Query** Requested read-out TGI, target or system RXF 393 renal, entry CC(=O)c1cccc(N(/C=C/C(=O)C(F)(F)F)CC(=O)c2ccc(Cl)cc2)c1
**Result** > 100 µM

----------
# Test system: HCT-15 colon
# RUN_DESCRIPTION: NCI tumour cell line growth inhibition, 48 h
Assign TGI to each entry below.
Your answer is read as µM, so omit the unit and give the number.

**Query** Give its TGI value. Item: CCN1CCN(Cc2ccc(NC(=O)Nc3ccc(-n4ccc5c(NC(=O)c6ccccc6)nccc54)cc3)cc2C(F)(F)F)CC1
**Result** 1.81

**Query** Give its TGI value. Item: COC(=O)C1=C(OC(=O)c2ccc(Cl)cc2)C(C(=O)OC)[C@@]2(O)[C@@H](C(=O)OC)C(c3ccccc3C(F)(F)F)C[C@@H]1[C@@H]2C(=O)OC (some centres not stated)
**Result** 14.6

**Query** Give its TGI value. Item: COc1ccc(OC)c(-c2cc(-c3ccccc3)nn2-c2ccc(S(=O)(=O)NC(C)=O)cc2)c1
**Result** 10.2

**Query** Give its TGI value. Item: COc1ccc(C(C2=C(C)C(=O)c3ccccc3C2=O)c2ccc(C(C)C)cc(=O)c2O)cc1 (configuration not stated)
**Result** 32.2

**Query** Give its TGI value. Item: CC(O)CNC1=CC(=O)C(=O)c2ccccc21 (configuration not stated)
**Result** 33.6

**Query** Give its TGI value. Item: O=C(O)C1=NN(c2ccc(S(=O)(=O)O)cc2)C2(C1)C(Cl)C(=O)N2c1nc2ccccc2s1 (configuration not stated)
**Result** 42.4

**Query** Give its TGI value. Item: Cc1cc([N+](=O)[O-])c(C)c2c1[nH]c1ccc(/C(CCC3CCCC3)=N\N)cc12
**Result** 29.2

----------
# Tested on: MDA-N
# RUN_DESCRIPTION: NCI tumour cell line growth inhibition, 48 h
Assign TGI to each entry below.

**Query** Give its TGI value. Item: COc1cc(-c2oc3ccccc3c(=O)c2O)cc(OC)c1OC
**Result** > 100 µM

**Query** Give its TGI value. Item: Cc1cnc2[nH]c(-c3cccc(F)c3)cc(=O)c2c1
**Result** 0.027 µM

**Query** Give its TGI value. Item: N#C/C(=C\c1cccc(Br)c1)c1nc2ccccc2c(=O)[nH]1
**Result** > 100 µM

**Query** Give its TGI value. Item: CC1(C)CCC(C)(C)c2cc(C(=O)Nc3ccc(C(=O)O)cc3)ccc21
**Result** > 62.8 µM

**Query** Give its TGI value. Item: CC[N+]1(C)CCC(O)(c2ccc(C)cc2)C(C(=O)c2ccc(C)cc2)C1 (stereo not given)
**Result** > 100 µM

**Query** Give its TGI value. Item: CCOc1snc(C(Cl)(Cl)Cl)c1Cl
**Result** > 100 µM

**Query** Give its TGI value. Item: CC(CO)[C@H]1OC(=O)C=C2[C@@]13O[C@@H]3[C@H]1OC(=O)[C@@]3(C)[C@H]4O[C@H]4C[C@@]2(C)[C@@H]13 (stereo not given in full)
**Result** 14 µM

**Query** Give its TGI value. Item: Clc1ccccc1NN(Cc1ccccn1)c1ccccc1Cl
**Result** 36 µM

**Query** Give its TGI value. Item: O=C1N/N=C\c2ccc(cc2)OCc2cccc(n2)COc2ccc(cc2)/C=N\NC1=O
**Result** > 25 µM

**Query** Give its TGI value. Item: CC1=C(C(=O)NC2CCCCC2)CC(C(=O)NC2CCCCC2)=C(C)N1
**Result** > 100 µM

**Query** Give its TGI value. Item: CN(C)c1ccc(/C=c2/c3ccccc3n3c2cc(-c2ccccc2)[n+]3C)cc1
**Result** 1.22 µM

**Query** Give its TGI value. Item: CCN(CC)c1ccc(NC(=S)NN(C)C)cc1
**Result** > 10 µM

**Query** Give its TGI value. Item: O=C1NC(=S)NC(=O)C1C(c1ccc(Cl)cc1)C1C(=O)NC(=S)NC1=O
**Result** > 100 µM

**Query** Give its TGI value. Item: O=C(Sc1c(-c2ccccc2)c(=O)n(-c2ccccc2)c(=S)n1-c1ccccc1)c1ccco1
**Result** > 100 µM

**Query** Give its TGI value. Item: CC(O)CNC1=CC(=O)C(=O)c2ccccc21 (stereo not given)
**Result** 34.5 µM

**Query** Give its TGI value. Item: NC(N)=NS(=O)(=O)c1ccc(NC(=O)c2cccc3c(NNc4ccc(S(N)(=O)=O)cc4)c4ccccc4nc23)cc1
**Result** > 100 µM

**Query** Give its TGI value. Item: C[C@H](c1ccccc1)N1C(=O)[C@@H](OCc2ccccc2)[C@H]1[C@H](COC(=O)COCc1ccccc1)OCc1ccccc1
**Result** > 100 µM

**Query** Give its TGI value. Item: N#Cc1nc(C2CCC(=O)O2)oc1N (stereo not given)
**Result** > 100 µM

**Query** Give its TGI value. Item: COC(=O)C1=C(C(=O)OC)SC(=C2SC3=C(SC(=C4SCCS4)S3)S2)S1
**Result** > 100 µM

**Query** Give its TGI value. Item: CC(=O)OCC(=O)O[C@@H]1[C@H]2[C@@H](OC(=O)c3ccccc3)[C@@H](C)C[C@]2(O)[C@H](OC(C)=O)[C@@]2(C)C[C@]1(OC(C)=O)C[C@H]1C(=O)C(C)(C)[C@@H](OC(C)=O)[C@@H]12
**Result** > 25 µM
